Details: human gut metagenome, 24 h, 2 µM; note: call rule not given here
outcome measure: Bacterial Biotransformation

These solved cases illustrate the format of a correct answer.
{"columns": ["molecule", "Bacterial Biotransformation"],
 "data": [
  ["COc1c(C)c2c(c(O)c1C/C=C(\\C)CCC(=O)OCCN1CCOCC1)C(=O)OC2 [MYCOPHENOLATE MOFETIL]", "Compound metabolized"],
  ["Cc1cc2c(cc1S(N)(=O)=O)S(=O)(=O)CCC2", "Compound NOT metabolized"],
  ["NC(=O)N1c2ccccc2CC(=O)c2ccccc21 [OXCARBAZEPINE]", "Compound NOT metabolized"],
  ["Cc1ccccc1N1C(=O)c2cc(S(N)(=O)=O)c(Cl)cc2NC1C (configuration not stated)", "Compound NOT metabolized"],
  ["CC(=O)O[C@]1(C(C)=O)CC[C@H]2[C@@H]3C=C(Cl)C4=CC(=O)[C@@H]5C[C@@H]5[C@]4(C)[C@H]3CC[C@@]21C [CYPROTERONE ACETATE]", "Compound metabolized"]
]}

Query: If you can, please state the reported Bacterial Biotransformation value of `C#C[C@]1(O)CC[C@H]2[C@@H]3CCC4=CC(=O)CC[C@@H]4[C@H]3CC[C@@]21CC` .
Response: Compound metabolized

Query: // repeat for CCCC(=O)Nc1ccc(OCC(O)CNC(C)C)c(C(C)=O)c1 (configuration not stated) and report
Response: Compound metabolized

Query: Try this molecule next: `CC(C)c1c(C(=O)Nc2ccccc2)c(-c2ccccc2)c(-c2ccc(F)cc2)n1CC[C@@H](O)C[C@@H](O)CC(=O)O`
Response: Compound metabolized

Query: Then this molecule: OC(CCN1CCCCC1)(c1ccccc1)C1CC2C=CC1C2 (configuration not stated)
Response: Compound metabolized

Query: Another molecule: `CCCCC(=O)N(Cc1ccc(-c2ccccc2-c2nnn[nH]2)cc1)[C@H](C(=O)O)C(C)C`
Response: Compound metabolized

Query: Subsequent entry: C=CCc1ccccc1OCC(O)CNC(C)C (configuration not stated)
Response: Compound metabolized

Query: Let us now turn to Cc1ccc(S(=O)(=O)NC(=O)NN2CC3CCCC3C2)cc1 (configuration not stated) [GLICLAZIDE]
Response: Compound metabolized

Query: Another molecule to check: `OCCN1CCN(CCCN2c3ccccc3Sc3ccc(C(F)(F)F)cc32)CC1`
Response: Compound metabolized

Where do these numbers come from? They come from ChEMBL document CHEMBL5724914.
